# System: ERK8
# Construct: gene MAPK15
# conditions-used: concentration: 1 μM, replicates: in singlicate; n = 1;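 also: KINOMEscan kinase panel screen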
Classification field: fulfilled = %Inh at or over 30%; not fulfilled = %Inh under 30%.

Task: Textbook exercise: given the entry Cc1cc(-c2ccc3c(c2)CC[C@@H](N[C@@H](C)c2ccccc2)C3)cnc1N.Cl [GW412617] , state whether its %Inh is greater than or equal to 30%.
Output: not fulfilled

Task: Textbook exercise: given the entry CSc1nn2c(=O)cc(N3CCOCC3)nc2n1Cc1cccc(C(F)(F)F)c1C [GSK2363608] , state whether its %Inh is greater than or equal to 30%.
Output: not fulfilled

Task: Textbook exercise: given the entry Cc1ccc(NC(=O)Nc2cc(C(C)(C)C)nn2-c2ccccc2)cc1 [GSK1014915] , state whether its %Inh is greater than or equal to 30%.
Output: fulfilled

Task: Textbook exercise: given the entry CC1=C(C(=O)Nc2cc3cn[nH]c3cc2F)C(c2ccc(C(F)(F)F)cc2)CC(=O)N1 (stereo not drawn) [GSK429286] , state whether its %Inh is greater than or equal to 30%.
Output: not fulfilled

Task: Textbook exercise: given the entry COc1cc2ncn(-c3cc(OCC4CCCO4)c(C(N)=O)s3)c2cc1OC (stereo not drawn) [GSK204607] , state whether its %Inh is greater than or equal to 30%.
Output: not fulfilled

Task: Textbook exercise: given the entry Cc1cc(N2Cc3ccccc3C2)nc(Nc2ccc(S(=O)(=O)N3CCOCC3)cc2)n1.Cl [GSK1669917] , state whether its %Inh is greater than or equal to 30%.
Output: not fulfilled

Task: Textbook exercise: given the entry CCn1c(-c2ccccn2)nc2cnccc21 [SB-736398] , state whether its %Inh is greater than or equal to 30%.
Output: fulfilled

Task: Textbook exercise: given the entry COc1ccc(C2=C(Nc3cccc(C(=O)O)c3)C(=O)NC2=O)cc1 [SB-390765] , state whether its %Inh is greater than or equal to 30%.
Output: not fulfilled

Task: Textbook exercise: given the entry O=C(O)COc1ncnc2cc(-c3ccc4[nH]ncc4c3)sc12 , state whether its %Inh is greater than or equal to 30%.
Output: not fulfilled

---

# Tested on: PIK4CB
# Construct: gene PI4KB
# conditions-used: concentration: 1 μM, replicates: in singlicate; n = 1
Reported %Inh values for a set of molecules
Field: numeric (%). Do not append units.

Solved cases (6 shown):
Cc1cccc(-c2nc(C)cc(Nc3ccncc3)n2)n1 ... 0
O=C1NC(=O)C(N2CCc3ccccc32)=C1c1ccccc1Cl ... 0
COc1ccc(CNC(=O)NC2CCN(c3ccnc(Nc4cc(OC)c(OC)c(OC)c4)n3)C2)cc1 (stereo not shown) ... 46
COc1cc2ncnc(Nc3ccc4nc(-c5ccccc5)[nH]c4c3)c2cc1OC.Cl ... 0
Cc1ccc(-c2cc(-c3c[nH]nc3-c3ccccn3)ccn2)cc1 ... 2
O=C(Nc1n[nH]c2cc(-c3cccc(F)c3F)ccc12)C1CC1 ... 8

Task: Entry Cc1cc(N2Cc3ccccc3C2)nc(Nc2ccc(S(=O)(=O)N3CCOCC3)cc2)n1.Cl has what %Inh?
Output: 100

---

# Tested on: FES
# conditions-used: concentration: 1 μM, replicates: in singlicate; n = 1
assay-readout: %Inh (%)
Field: numeric (%). Do not append units.

Solved cases (5 shown):
O=C(Nc1n[nH]c2nc(-c3nccs3)c(Br)cc12)C1CC1 [SB-742251] ... 12
Cc1ccc(NC(=O)Nc2cccc(Cl)c2)cc1-c1ccc(C(=O)Nc2ccncc2)cc1 [GSK1398468] ... 9
COc1ccc(CNC(=O)NC2CCN(c3ccnc(Nc4cc(OC)c(OC)c(OC)c4)n3)C2)cc1 (stereo not drawn) [GSK1379748] ... 7
Cn1ccc2ncnc(Oc3ccc(Nc4nc5ccccc5[nH]4)cc3)c21 ... 0
Cc1ccc(C(=O)Nc2ccc(Nc3ccnc4cc(-c5ccccn5)ccc34)cc2O)cc1.Cl [GW440146] ... 0

Task: Entry COc1cccc(-c2cc(-c3c[nH]nc3-c3ccccn3)ccn2)c1 [GW680338] has what %Inh?
Output: 9

Task: Entry Cc1cccc(-c2nc(Nc3ccc4[nH]ncc4c3)c3ccccc3n2)n1 [GW857175] has what %Inh?
Output: 0

Task: Entry COc1cc2nccc(Nc3ccc(NC(=O)c4ccc(C)cc4)c(O)c3)c2cc1OC.Cl [GW440132] has what %Inh?
Output: 5

Task: Entry CC(C)(C)c1ccc(C(=O)Nc2cn3cc(Cl)ccc3n2)cc1 has what %Inh?
Output: 0
